System: ACHN renal
Assay: NCI tumour cell line growth inhibition, 48 h
Observable: TGI

Look over these answered cases.
OC1(c2cc3ccccc3s2)CCCCC1 = > 100 µM
O=S1(=O)c2ccccc2C(=NO)c2ccccc21 = > 100 µM
Cc1cc(-c2nc3ccccc3s2)ccc1NC(=O)[C@H](C)N = 27.5 µM
CCN(c1ccc(Br)cc1)c1c(Br)c(=O)nc2ccccn12 = > 100 µM

response.value for `COc1ccc(-n2c3c(c4c(CN5CCOCC5)c(O)ccc42)CCc2ccccc2C3=O)cc1` (field: TGI) = > 100 µM

response.value for `Cc1c(C)[n+](=O)c(C)c(C)n1[O-]` (field: TGI) = > 100 µM

* * *

System: NCI-H23 lung
Assay: NCI tumour cell line growth inhibition, 48 h
1 means recorded TGI is 20 µM or above; -1 means it is below 20 µM.

Past entries and their recorded results:
Cc1cc(C)c(O)c(CN(C)Cc2cc(Cl)cc(Cl)c2O)c1 = -1
CCOC(=O)/C=C/C(C(=O)/C=C/c1ccc(O)c(OC)c1)=C(O)\C=C\c1ccc(O)c(OC)c1 = -1
COc1cccc2c1C(=O)c1c(O)c3c(c(O)c1C2=O)C[C@@](O)(C(=O)CO)C[C@@H]3OC1C[C@H](N)[C@H](O)[C@H](C)O1 (some centres undefined) = -1
COC(=O)[C@]12CC[C@@H](C)[C@H](C)[C@@H]1C1=CC[C@@H]3[C@@]4(C)C=C(O)C(=O)[C@@]5(C)COC(=C54)C[C@@]3(C)[C@]1(C)CC2 = -1
CC#CC1/C(=C\C(=O)OC)CCCC1O (centres undefined) = 1

Q: Record `COc1cccc(N(CN2CC=CC2=O)C(C)=O)c1` ; criterion: TGI no lower than 20 µM. Met?
Ans: 1

Q: Record `COc1ccc2c(c1)C(c1ccccc1Cl)=Nc1c(n[nH]c1C)N2` ; criterion: TGI no lower than 20 µM. Met?
Ans: 1

Q: Record `CCOC(=O)/C=C(\C(=O)OCC)n1ccc(N)nc1=O` ; criterion: TGI no lower than 20 µM. Met?
Ans: 1

Q: Record CC(C)(C)C(=O)ON1N=NC2C3CC(OCc4ccccc4)(OCc4ccccc4)C(O3)C21 (centres undefined) ; criterion: TGI no lower than 20 µM. Met?
Ans: 1

* * *

System: HOP-92 NSCLC
Assay: NCI tumour cell line growth inhibition, 48 h
Observable: TGI (µM)
Numbers only here, please. The scale is µM.

Look over these answered cases.
CCCCOC(=O)NC(=O)c1cn(CCSCCOC(=O)NCCCCCCNC(=O)OCCSCCn2cc(C(=O)NC(=O)OCCCC)c(=O)[nH]c2=O)c(=O)[nH]c1=O = 71.8
CN1CCN(Cc2ccc(NC(=O)c3ccc(C#Cc4c(N)ncc5ccc(F)cc45)cc3)cc2C(F)(F)F)CC1 = 1.45
O=C(CCl)N1c2ccccc2Sc2ccc3ccccc3c21 = 2.51
COc1ccc(-c2ccc(-c3ccc(-c4ccc(C(=N)N)cc4)s3)s2)cc1OC = 6.1

Next compound, please.
response.value for `O=c1c2cc(I)ccc2nc(Sc2ncccc2[N+](=O)[O-])n1Cc1ccccc1` (field: TGI) = 77.6

* * *

System: MOLT-4 leukemia
Assay: NCI tumour cell line growth inhibition, 48 h
Observable: TGI

Look over these answered cases.
COC(=O)n1c(=O)n(-c2ccccc2)c(=O)n1C(=O)OC = > 100 µM
O=C1c2c(n(Cc3ccccc3)c(=O)n2Cc2ccccc2)C(=O)N1Cc1ccccc1 = > 100 µM
C#Cc1c(C(N)=O)ncn1C1OC(COP(=O)(OCc2ccc([N+](=O)[O-])o2)N(C)CCCCCl)C(O)C1O (stereo not given) = > 100 µM

response.value for `Cn1cc(-c2cnc3ccc4ccc(CS(=O)(=O)NCc5ccccn5)cc4c(=O)c3c2)cn1` (field: TGI) = 52.5 µM

response.value for `O=S1(=O)c2ccccc2C(=NO)c2ccccc21` (field: TGI) = > 100 µM

response.value for `O=c1c2cc(I)ccc2nc(Sc2ncccc2[N+](=O)[O-])n1Cc1ccccc1` (field: TGI) = > 100 µM

response.value for `O=C(O)c1cc(N=Cc2ccccc2O)cc(C(=O)O)c1` (field: TGI) = > 100 µM

response.value for `C=C(CC[C@@H](C(=O)O)[C@H]1[C@H](O)C[C@@]2(C)C3=CC[C@@H](C(=C)C)[C@](C)(CCC(=O)O)C3=CC[C@]12C)C(C)C` (field: TGI) = 64.4 µM

response.value for `Cc1[nH]c2ccccc2c1C=Nc1ccc(N=Cc2c(C)[nH]c3ccccc23)cc1` (field: TGI) = 43.1 µM

response.value for CCCCCCCCCCCCCCCCCCNc1ccn(C2OC(COP(=O)(O)OCC3OC(n4cc(C)c(=O)[nH]c4=O)CC3N=[N+]=[N-])C(O)C2O)c(=O)n1 (stereo not given) (field: TGI) = 44.4 µM

response.value for `OC1(c2cc3ccccc3s2)CCCCC1` (field: TGI) = 67.4 µM

response.value for `[N-]=[N+]=NCc1cccc(Nc2cc(=O)[nH]c(=O)[nH]2)c1` (field: TGI) = > 100 µM

response.value for `CCSC1=C(C)N(C=NC(C)(C)C)CC1` (field: TGI) = > 100 µM

response.value for CO[C@@H]1CC(=O)C2(CC(=O)O[C@@H]2/C=C(\C)CCC=C(C)C)C[C@@H]1O (stereo not given in full) (field: TGI) = > 50 µM

response.value for `C=CC(=O)N[C@H]1CCOC[C@H]1Nc1ncc2cc(-c3c(Cl)c(OC)cc(OC)c3Cl)ccc2n1` (field: TGI) = > 100 µM
